Data provenance is PubChem BioAssay (NCI).

system: TK-10 renal; assay: NCI tumour cell line growth inhibition, 48 h
# maps each entry to its TGI

Please review the entries below; each comes with its answer.
Lab note: CCCCCCCCCC[C@H](O)[C@H]1CC[C@H]([C@H]2CC[C@H]([C@H](O)CC[C@H](O)CCCCCCC[C@@H](O)CC3=C[C@H](C)OC3=O)O2)O1 gave TGI of > 100 µM

Entry under test: CC(=O)OC(C)c1cc2c(s1)C(=O)c1sccc1C2=O (stereo not drawn) . Its TGI was 3.86 µM

Recorded TGI (compound O=C1OC(=O)C(c2c[nH]c3ccccc23)=C1c1c[nH]c2ccccc12 ): > 25 µM

Record summary for COCCN1C2=CCCCC2=Nc2c1nc(N)[nH]c2=O : reported TGI = > 100 µM

Please fill in: TGI reported for C/C(N=Nc1nc2ccccc2s1)=C1/C=CC=CN1O = 61.3 µM

So, N#Cc1cnc2cc(OC[C@H](O)CO)c(NC(=O)CC3CSSC3)cc2c1Nc1ccc(OCc2cccc(F)c2)c(Cl)c1 ? Its TGI was 2.13 µM

// TGI value for C=CCc1c2c(c(OC)c3ccoc13)C(=O)/C(=C/c1ccccc1OC)O2 : > 100 µM

---
Record summary for CCC12C[N+]3([O-])CCc4c([nH]c5ccccc45)C(C(=O)OC)(c4cc5c(cc4OC)N(C)C4C(O)(C(=O)OC)C(OC(C)=O)C6(CC)C=CCN7CCC54C76)CC(C3)C1O2 (stereo not drawn) : reported TGI = 26.8 µM
